Measured TGI values are reported for all entries that follow.
System: SK-OV-3 ovarian
Test: NCI tumour cell line growth inhibition, 48 h

See these solved cases before continuing.
CC1=C(C#N)C(=C(C#N)C#N)OC1(C)Cc1ccccc1 (stereo unspecified) :: > 100 µM
CN(CCS(=O)(=O)N1C(=O)C2CCCN2C(=O)[C@@H]1Cc1ccccc1)C(=O)OCc1ccccc1 (stereo partly specified) :: > 100 µM
O=C(Nc1ccccc1)c1cc(S(=O)(=O)Nc2n[nH]c(=O)n2-c2ccccc2)c(S)cc1Cl :: > 100 µM

For reference, reported TGI for `COc1ccc(Cc2c3cc(O)c(=O)cc-3ccn2C)cc1` stands at > 100 µM

For reference, reported TGI for CCOC(OC(C)=O)[C@@H]1C=C[C@H](C)N(c2ccc([N+](=O)[O-])cc2)O1 (stereo partly specified) stands at 35.3 µM

For reference, reported TGI for CC1Cc2c(Cl)ncnc2N(C)c2ccc(Cl)cc21 (stereo unspecified) stands at 12.9 µM

For reference, reported TGI for `CCC[C@H]1O[C@@H]2CC(=O)O[C@@H]2C2=C1C(=O)C=CC2=O` stands at > 56.3 µM

For reference, reported TGI for `Cc1c(-c2cnccn2)ssc1=S` stands at 93 µM

For reference, reported TGI for CC(C)(C)[Si](OC1CCOC1=O)(c1ccccc1)c1ccccc1 (stereo unspecified) stands at > 100 µM

For reference, reported TGI for COc1cc2c(cc1OC)OC(c1c(OC)ccc(OC)c1O)CC2 (stereo unspecified) stands at > 100 µM

For reference, reported TGI for `CC1=N/C(=C/c2ccc3c(c2)OCO3)C(=O)O1` stands at > 100 µM

# credit: PubChem BioAssay (NCI)
